The values you see were collected from patent US9452986B2.

- SYSTEM_UNDER_TEST: recombinant human Nav1.7 (Homo sapiens (Human), UniProt Q15858)
- Sequence (Q15858 whole entry): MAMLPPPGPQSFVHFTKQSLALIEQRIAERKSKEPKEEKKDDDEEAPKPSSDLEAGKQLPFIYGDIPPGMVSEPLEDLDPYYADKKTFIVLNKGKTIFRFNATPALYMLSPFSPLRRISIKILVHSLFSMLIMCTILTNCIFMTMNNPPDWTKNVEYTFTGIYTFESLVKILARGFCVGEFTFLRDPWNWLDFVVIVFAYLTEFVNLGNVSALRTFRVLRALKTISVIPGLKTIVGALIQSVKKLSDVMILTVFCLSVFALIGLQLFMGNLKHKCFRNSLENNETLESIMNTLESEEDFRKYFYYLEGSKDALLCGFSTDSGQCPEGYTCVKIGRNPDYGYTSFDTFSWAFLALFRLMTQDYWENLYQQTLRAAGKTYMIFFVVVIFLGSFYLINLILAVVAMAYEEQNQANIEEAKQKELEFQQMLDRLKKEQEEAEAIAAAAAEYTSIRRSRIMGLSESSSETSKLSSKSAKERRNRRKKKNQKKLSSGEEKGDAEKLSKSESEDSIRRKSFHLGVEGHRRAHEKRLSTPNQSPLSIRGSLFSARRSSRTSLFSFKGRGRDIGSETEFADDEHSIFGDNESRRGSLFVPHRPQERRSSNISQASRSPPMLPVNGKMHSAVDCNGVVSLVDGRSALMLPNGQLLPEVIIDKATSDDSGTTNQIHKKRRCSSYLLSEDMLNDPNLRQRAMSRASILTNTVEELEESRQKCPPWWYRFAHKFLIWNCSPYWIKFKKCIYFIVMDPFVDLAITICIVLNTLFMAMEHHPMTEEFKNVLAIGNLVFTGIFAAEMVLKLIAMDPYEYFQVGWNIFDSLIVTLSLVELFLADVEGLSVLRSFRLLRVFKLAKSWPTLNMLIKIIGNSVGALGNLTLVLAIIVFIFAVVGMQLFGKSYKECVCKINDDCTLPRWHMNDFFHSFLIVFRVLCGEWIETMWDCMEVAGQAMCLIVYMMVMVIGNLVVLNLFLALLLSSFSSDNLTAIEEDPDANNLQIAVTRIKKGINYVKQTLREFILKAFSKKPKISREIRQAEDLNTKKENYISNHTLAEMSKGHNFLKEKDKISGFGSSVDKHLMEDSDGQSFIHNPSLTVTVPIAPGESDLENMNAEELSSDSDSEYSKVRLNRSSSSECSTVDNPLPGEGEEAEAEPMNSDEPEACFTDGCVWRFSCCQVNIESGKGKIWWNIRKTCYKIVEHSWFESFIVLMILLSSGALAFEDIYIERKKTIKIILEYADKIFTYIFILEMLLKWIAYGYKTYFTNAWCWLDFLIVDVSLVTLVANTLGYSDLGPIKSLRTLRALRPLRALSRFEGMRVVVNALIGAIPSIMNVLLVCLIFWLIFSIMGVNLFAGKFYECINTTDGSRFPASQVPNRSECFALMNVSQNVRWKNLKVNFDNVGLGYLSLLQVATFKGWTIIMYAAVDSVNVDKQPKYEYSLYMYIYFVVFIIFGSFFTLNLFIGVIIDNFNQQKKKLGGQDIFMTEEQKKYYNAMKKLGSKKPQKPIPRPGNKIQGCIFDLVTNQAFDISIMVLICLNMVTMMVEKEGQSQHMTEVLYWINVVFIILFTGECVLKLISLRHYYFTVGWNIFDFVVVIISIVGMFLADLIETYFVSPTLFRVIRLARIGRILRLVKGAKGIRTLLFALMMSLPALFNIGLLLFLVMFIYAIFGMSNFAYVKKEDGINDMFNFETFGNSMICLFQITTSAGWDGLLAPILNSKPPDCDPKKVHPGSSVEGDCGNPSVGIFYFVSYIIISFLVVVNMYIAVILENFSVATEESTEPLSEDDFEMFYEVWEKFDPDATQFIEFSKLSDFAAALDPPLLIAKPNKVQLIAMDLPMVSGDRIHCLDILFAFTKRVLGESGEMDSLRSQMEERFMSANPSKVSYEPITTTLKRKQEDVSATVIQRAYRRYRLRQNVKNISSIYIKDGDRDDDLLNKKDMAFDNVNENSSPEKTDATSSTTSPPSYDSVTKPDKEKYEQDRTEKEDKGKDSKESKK
- MEASUREMENT_NOTES: FRET-based membrane potential assay, recombinant human sodium channel Nav1.7
- Format: cell-based
- MEASUREMENT_CONTEXT: HEK293 cells stably expressing recombinant human Nav1.7; veratridine + scorpion venom depolarization; read-out: FRET-Membrane Potential Nav1.7 IC50
Would you kindly list log10(IC50) for each of these compounds?
A value of 2 here means IC50 of 100 in nM, since values are log10.

Below: 3 compounds and their reported log10(IC50).
COC(C)(C)CNC(=O)c1ccc2cc(Oc3ccc(C(F)(F)F)cn3)ccc2n1	3.08
CC(C)C(CO)NC(=O)c1ccc2cc(Oc3ccc(C#N)cc3)ccc2n1 (stereo not shown)	3.69
O=C(NCC(=O)N1CCCCC1)c1ccc2cc(Oc3ccc(C(F)(F)F)nc3)ccc2n1	3.00

Respectfully, I request log10(IC50) for each entry included below.
1. O=C(c1ccc2cc(Oc3ccc(C(F)(F)F)cn3)ccc2n1)N1CCC2(CC1)CC(O)C2
2. O=C(c1ccc2cc(Oc3ccc(C(F)(F)F)cn3)ccc2n1)N1CC(F)(F)C[C@@H]1CO
3. O=C(NCC(O)C(F)(F)F)c1ccc2cc(Oc3ccc(C(F)(F)F)cn3)ccc2n1 (stereo not shown)
4. CN(CC(=O)NC1CC1)C(=O)c1ccc2cc(Oc3ccc(C(F)F)cn3)ccc2n1
5. O=C(c1ccc2cc(Oc3ccc(C(F)(F)F)cn3)ccc2n1)N1C[C@@H]2C[C@H]1CN2
6. CS(=O)(=O)NC1CN(C(=O)c2ccc3cc(Oc4ccc(C(F)(F)F)cn4)ccc3n2)C1
7. O=C(c1ccc2cc(Oc3ccc(C(F)(F)F)cn3)ccc2n1)N1CCC(CO)C1 (stereo not shown)
8. O=C(NC1CC(F)C1)c1ccc2cc(Oc3ccc(C(F)F)cn3)ccc2n1 (stereo not shown)

(A)
[4.09, 3.46, 2.97, 3.97, 3.16, 4.01, 3.76, 3.44]

Respectfully, I request log10(IC50) for each entry included below.
1. NC(=O)CNC(=O)c1ccc2cc(Oc3ccc(C(F)(F)F)cn3)ccc2n1
2. O=C(NCC1(O)CC1)c1ccc2cc(Oc3ccc(C(F)(F)F)cn3)ccc2n1

(A)
1. 3.36
2. 4.18

Respectfully, I request log10(IC50) for each entry included below.
1. O=C(c1ccc2cc(Oc3ccc(C(F)(F)F)cn3)ccc2n1)N1CC[C@H](O)C1
2. N#CC1CN(C(=O)c2ccc3cc(Oc4ccc(C(F)(F)F)cn4)ccc3n2)C1
3. CN1CCC(NC(=O)c2ccc3cc(Oc4ccc(C#N)cc4)ccc3n2)C1=O (stereo not shown)
4. N#Cc1ccc(Oc2ccc3nc(C(=O)NCCc4cccs4)ccc3c2)cc1
5. CC(C)[C@H]1CN(C(=O)c2ccc3cc(Oc4ccc(C(F)(F)F)cn4)ccc3n2)CCN1
6. O=C(c1ccc2cc(Oc3ccc(C(F)(F)F)cn3)ccc2n1)N1CCN(CC(F)F)CC1

(A)
1: 4.04; 2: 3.40; 3: 3.03; 4: 3.19; 5: 2.48; 6: 4.09

----------
- SYSTEM_UNDER_TEST: recombinant human Nav1.7 (Homo sapiens (Human), UniProt Q15858)
- MEASUREMENT_NOTES: FRET-based membrane potential assay, recombinant human sodium channel Nav1.7
- Type: cell-based
- MEASUREMENT_CONTEXT: HEK293 cells stably expressing recombinant human Nav1.7; veratridine + scorpion venom depolarization; read-out: FRET-Membrane Potential Nav1.7 IC50
ASSAY_METRIC: pIC50
Give bare numbers, as −log10 of the molar value.

CN(C(=O)c1ccc2cc(Oc3ccc(C(F)(F)F)cn3)ccc2n1)C1CS(=O)(=O)CC1O (stereo not shown)	5.21
CC1CN(C(=O)c2ccc3cc(Oc4ccc(C(F)(F)F)cn4)ccc3n2)CC(C)N1 (stereo not shown)	6.21

Consider the additional molecule presented here.
(Q) Give its pIC50 value. Item: CN1CCC(NC(=O)c2ccc3cc(Oc4ccc(C(F)(F)F)cn4)ccc3n2)C1=O (stereo not shown)
(A) 5.99
